- assayed.system: Receptor-interacting serine/threonine-protein kinase 1 (Homo sapiens) (UniProt Q13546)
- Sequence (whole entry): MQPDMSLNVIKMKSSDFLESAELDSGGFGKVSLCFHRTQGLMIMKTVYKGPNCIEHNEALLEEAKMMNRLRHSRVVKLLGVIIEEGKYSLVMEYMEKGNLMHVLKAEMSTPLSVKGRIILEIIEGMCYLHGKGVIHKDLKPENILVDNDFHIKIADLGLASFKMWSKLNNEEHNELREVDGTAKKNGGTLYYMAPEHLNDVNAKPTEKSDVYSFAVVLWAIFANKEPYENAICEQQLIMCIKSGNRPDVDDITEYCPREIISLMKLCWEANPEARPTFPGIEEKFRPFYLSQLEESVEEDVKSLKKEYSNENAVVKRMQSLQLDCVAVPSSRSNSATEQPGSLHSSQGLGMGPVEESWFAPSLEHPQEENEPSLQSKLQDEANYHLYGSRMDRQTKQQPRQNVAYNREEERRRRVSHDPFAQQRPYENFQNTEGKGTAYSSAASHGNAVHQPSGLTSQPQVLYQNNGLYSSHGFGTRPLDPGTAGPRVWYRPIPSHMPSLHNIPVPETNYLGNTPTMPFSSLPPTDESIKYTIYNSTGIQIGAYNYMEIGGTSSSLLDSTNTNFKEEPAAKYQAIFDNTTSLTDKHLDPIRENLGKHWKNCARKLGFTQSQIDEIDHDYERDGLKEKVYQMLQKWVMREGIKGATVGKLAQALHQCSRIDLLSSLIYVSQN
- assay.protocol: Inhibition of recombinant human N-terminal GST-tagged RIPK1 (1 to 327 residues) expressed in baculovirus infected Sf9 insect cells at 1 uM using myelin basic protein as substrate by ADP-glo assay relative to control
endpoint: inhibition

Reference set, count: 3
**Q:** What value of inhibition has been reported for the following compound? Cc1ccc(OCCC2CCOCC2)cc1-c1ccnc(NC(=O)c2nc3n(n2)[C@H](c2ccccc2)C[C@@H]3F)c1
**A:** 78.8%

**Q:** What value of inhibition has been reported for the following compound? Cc1ccc(OCCN2CCOCC2)cc1-c1ccnc(NC(=O)c2nc3n(n2)[C@H](c2ccccc2)C[C@@H]3F)c1
**A:** 79.1%

**Q:** Please report the recorded inhibition for Cc1ccc(OCCC2CCOCC2)cc1-c1ccnc(NC(=O)c2nc3n(n2)[C@@H](c2ccccc2)C[C@H]3F)c1 .
**A:** < 0%

Now for another entry.
**Q:** Fill in: inhibition of Cc1ccc(OCCN2CCOCC2)cc1-c1ccnc(NC(=O)c2nc3n(n2)[C@@H](c2ccccc2)C[C@H]3F)c1 is ___
**A:** < 0%

The reported measurements were obtained from ChEMBL document CHEMBL5579858.
